Tested on: Vibrio alginolyticus
Test: Antibacterial activity against Vibrio alginolyticus QDIO-5 assessed as inhibition of bacterial growth by serial dilution method
Type: functional
In this section we review reported MIC values for a set of compounds.
property name: MIC (µg/mL)

{"compound": "CC1C=C[C@H]2C[C@@H](CO)C[C@@H](C)[C@@H]2[C@H]1/C=C/C=C/C(=O)O (some centres undefined)", "property name": "MIC", "relation symbol": "=", "readout number": 8}
{"compound": "CO[C@]1(C)C=C[C@H]2C[C@@H](CO)C[C@@H](C)[C@@H]2[C@H]1/C=C/C=C/C(=O)O", "property name": "MIC", "relation symbol": ">", "readout number": 64}
{"compound": "Cc1ccc2c(c1/C=C/C=C/C(=O)O)[C@H](C)C[C@@](C)(O)C2", "property name": "MIC", "relation symbol": ">", "readout number": 64}
{"compound": "Cc1ccc2c(c1/C=C/C=C/C(=O)O)[C@H](C)C[C@@](C)(O)C2=O", "property name": "MIC", "relation symbol": ">", "readout number": 64}
{"compound": "C[C@@H]1C[C@@H]2C=C[C@H](C)[C@H](/C=C/C=C/C(=O)O)[C@H]2[C@@](C)(O)C1", "property name": "MIC", "relation symbol": "=", "readout number": 32}
{"compound": "C[C@@H]1C[C@H](CO)C[C@@H]2C=C[C@@](C)(O)[C@](O)(/C=C/C=C/C(=O)O)[C@@H]12", "property name": "MIC", "relation symbol": "=", "readout number": 32}
{"compound": "Cc1ccc2cc(CO)cc(C)c2c1/C=C/C=C/C(=O)O", "property name": "MIC", "relation symbol": "=", "readout number": 16}
{"compound": "Cc1cc(C)c2c(/C=C/C=C/C(=O)O)c(CO)ccc2c1", "property name": "MIC", "relation symbol": "=", "readout number": 32}
{"compound": "C[C@H]1C=C[C@H]2C[C@@H](CO)C[C@](C)(O)[C@@H]2[C@H]1/C=C/C=C/C(=O)O", "property name": "MIC", "relation symbol": ">", "readout number": 64}

* * *

We begin with a simple list: items and their reported MIC.
Tested on: Pseudomonas aeruginosa
Assay: Antibacterial activity against Pseudomonas aeruginosa QDIO-4 assessed as inhibition of bacterial growth by serial dilution method
Type: functional
property name: MIC

{"compound": "C[C@H]1C=C[C@H]2C[C@@H](CO)C[C@](C)(O)[C@@H]2[C@H]1/C=C/C=C/C(=O)O", "property name": "MIC", "result": "4 µg/mL"}
{"compound": "Cc1ccc2c(c1/C=C/C=C/C(=O)O)[C@H](C)C[C@@](C)(O)C2", "property name": "MIC", "result": "16 µg/mL"}
{"compound": "C[C@@H]1C[C@H](CO)C[C@@H]2C=C[C@@](C)(O)[C@](O)(/C=C/C=C/C(=O)O)[C@@H]12", "property name": "MIC", "result": "> 64 µg/mL"}
{"compound": "C[C@@H]1C[C@@H]2C=C[C@H](C)[C@H](/C=C/C=C/C(=O)O)[C@H]2[C@@](C)(O)C1", "property name": "MIC", "result": "> 64 µg/mL"}
{"compound": "Cc1cc(C)c2c(/C=C/C=C/C(=O)O)c(CO)ccc2c1", "property name": "MIC", "result": "> 64 µg/mL"}
{"compound": "CO[C@@]1(C)C=C[C@H]2C[C@@H](CO)C[C@@H](C)[C@@H]2[C@H]1/C=C/C=C/C(=O)O", "property name": "MIC", "result": "> 64 µg/mL"}
{"compound": "CC1C=C[C@H]2C[C@@H](CO)C[C@@H](C)[C@@H]2[C@H]1/C=C/C=C/C(=O)O (some centres undefined)", "property name": "MIC", "result": "> 64 µg/mL"}
{"compound": "Cc1cc(CO)cc2ccc(CO)c(/C=C/C=C/C(=O)O)c12", "property name": "MIC", "result": "> 64 µg/mL"}
{"compound": "Cc1ccc2cc(CO)cc(C)c2c1/C=C/C=C/C(=O)O", "property name": "MIC", "result": "> 64 µg/mL"}

* * *

System: Vibrio alginolyticus
Assay: Antibacterial activity against Vibrio alginolyticus QDIO-5 assessed as inhibition of bacterial growth by serial dilution method
Format: functional

{"molecule": "O=C(N[C@H](CO)[C@H](O)c1ccc([N+](=O)[O-])cc1)C(Cl)Cl [CHLORAMPHENICOL]", "MIC": "2 µg/mL"}
{"molecule": "Cc1ccc2c(c1/C=C/C=C/C(=O)O)[C@H](C)C[C@H](C)[C@@H]2O", "MIC": "32 µg/mL"}
{"molecule": "CO[C@@]1(C)C=C[C@H]2C[C@@H](CO)C[C@@H](C)[C@@H]2[C@H]1/C=C/C=C/C(=O)O", "MIC": "32 µg/mL"}
{"molecule": "Cc1cc(CO)cc2ccc(CO)c(/C=C/C=C/C(=O)O)c12", "MIC": "64 µg/mL"}
{"molecule": "Cc1cc(CO)cc2ccc(CO)c(/C=C\\C=C\\C(=O)O)c12", "MIC": "> 64 µg/mL"}
{"molecule": "Cc1ccc2c(c1/C=C/C=C/C(=O)O)[C@H](C)C[C@H](CO)C2", "MIC": "> 64 µg/mL"}

* * *

Test system: Micrococcus luteus
Test: Antibacterial activity against Micrococcus luteus QDIO-3 assessed as inhibition of bacterial growth by serial dilution method
Format: functional
Listing of recorded MIC by entry.

{"compound": "Cc1ccc2cc(CO)cc(C)c2c1/C=C/C=C/C(=O)O", "MIC": "2 µg/mL"}
{"compound": "Cc1ccc2c(c1/C=C/C=C/C(=O)O)[C@H](C)C[C@H](CO)C2", "MIC": "> 64 µg/mL"}
{"compound": "Cc1ccc2c(c1/C=C/C=C/C(=O)O)[C@H](C)C[C@H](C)[C@@H]2O", "MIC": "64 µg/mL"}
{"compound": "C[C@H]1C=C[C@H]2C[C@@H](CO)C[C@](C)(O)[C@@H]2[C@H]1/C=C/C=C/C(=O)O", "MIC": "> 64 µg/mL"}
{"compound": "CO[C@@]1(C)C=C[C@H]2C[C@@H](CO)C[C@@H](C)[C@@H]2[C@H]1/C=C/C=C/C(=O)O", "MIC": "> 64 µg/mL"}
{"compound": "Cc1ccc2c(c1/C=C/C=C/C(=O)O)[C@H](C)C[C@@](C)(O)C2", "MIC": "> 64 µg/mL"}
{"compound": "Cc1ccc2c(c1/C=C/C=C/C(=O)O)[C@H](C)C[C@@](C)(O)C2=O", "MIC": "> 64 µg/mL"}
{"compound": "Cc1cc(C)c2c(/C=C/C=C/C(=O)O)c(CO)ccc2c1", "MIC": "> 64 µg/mL"}
{"compound": "Cc1cc(CO)cc2ccc(CO)c(/C=C\\C=C\\C(=O)O)c12", "MIC": "> 64 µg/mL"}
{"compound": "C[C@@H]1C[C@H](CO)C[C@@H]2C=C[C@@](C)(O)[C@](O)(/C=C/C=C/C(=O)O)[C@@H]12", "MIC": "> 64 µg/mL"}
{"compound": "O=C(N[C@H](CO)[C@H](O)c1ccc([N+](=O)[O-])cc1)C(Cl)Cl", "MIC": "0.5 µg/mL"}
{"compound": "CO[C@]1(C)C=C[C@H]2C[C@@H](CO)C[C@@H](C)[C@@H]2[C@H]1/C=C/C=C/C(=O)O", "MIC": "> 64 µg/mL"}
{"compound": "Cc1cc(CO)cc2ccc(CO)c(/C=C/C=C/C(=O)O)c12", "MIC": "> 64 µg/mL"}
{"compound": "C[C@@H]1C[C@@H]2C=C[C@H](C)[C@H](/C=C/C=C/C(=O)O)[C@H]2[C@@](C)(O)C1", "MIC": "> 64 µg/mL"}
{"compound": "CC1C=C[C@H]2C[C@@H](CO)C[C@@H](C)[C@@H]2[C@H]1/C=C/C=C/C(=O)O (stereo not given in full)", "MIC": "8 µg/mL"}

* * *

Tested on: Pseudomonas aeruginosa
Experiment: Antibacterial activity against Pseudomonas aeruginosa QDIO-4 assessed as inhibition of bacterial growth by serial dilution method
Type: functional

{"smiles text": "O=C(N[C@H](CO)[C@H](O)c1ccc([N+](=O)[O-])cc1)C(Cl)Cl", "MIC": "1 µg/mL"}
{"smiles text": "CO[C@]1(C)C=C[C@H]2C[C@@H](CO)C[C@@H](C)[C@@H]2[C@H]1/C=C/C=C/C(=O)O", "MIC": "> 64 µg/mL"}
{"smiles text": "Cc1ccc2c(c1/C=C/C=C/C(=O)O)[C@H](C)C[C@H](C)[C@@H]2O", "MIC": "> 64 µg/mL"}
{"smiles text": "Cc1ccc2c(c1/C=C/C=C/C(=O)O)[C@H](C)C[C@H](CO)C2", "MIC": "> 64 µg/mL"}
{"smiles text": "Cc1cc(CO)cc2ccc(CO)c(/C=C\\C=C\\C(=O)O)c12", "MIC": "> 64 µg/mL"}
{"smiles text": "Cc1ccc2c(c1/C=C/C=C/C(=O)O)[C@H](C)C[C@@](C)(O)C2=O", "MIC": "> 64 µg/mL"}
